The reader will find reported drug sensitivity score values listed item by item below.
System: MDA-MB-453
Experiment: drug sensitivity score (DSS), single agent (DSS (weighted AUC score)); higher = more sensitive (stronger viability decrease); extreme values may be limits of the assay
Settings: BLU9931 0 nM; 72 h
// no unit, no text: just the number

See these solved cases before continuing.
1. CC(C)[C@H]1C(=O)N[C@@H](CCCNC(=N)N)C(=O)NCC(=O)N[C@@H](CC(=O)O)C(=O)N[C@H](Cc2ccccc2)C(=O)N1C [Cilengitide] | 0
2. C=CC(=O)Nc1cccc(Nc2nc(Nc3ccc(OCCOC)cc3)ncc2F)c1 | 0.7
3. COc1ccccc1S(=O)(=O)Nc1ccc2c(c1)CN(C)C(=O)N2 | 8.2

Q. Which measured drug sensitivity score value corresponds to CCCOc1ccn2c(C(C)=O)cc(-c3ccccc3S(C)(=O)=O)c2c1 ?
A. 0

Q. Any idea what its drug sensitivity score is? The compound is NS(=O)(=O)OC[C@@H]1C[C@@H](n2ccc3c(N[C@H]4CCc5ccccc54)ncnc32)C[C@@H]1O
A. 7

Q. For the compound shown here, COc1cc2c(cc1OCCCN1CCCC1)N=C(N)C21CCC1 , give the reported drug sensitivity score.
A. 0

Q. Using the record for Cc1noc2c1-c1ccccc1C(c1ccc(Cl)cc1)=N[C@H]2CC(N)=O , report its drug sensitivity score.
A. 9.4

Q. For the compound O=C(O)CC1CC(c2ccccc2)=NO1 (configuration not stated) , what drug sensitivity score is on record?
A. 0

Q. What value of measured drug sensitivity score is listed for CCn1cc(-c2ccnc3[nH]c(-c4cccc(CN(C)C)c4)cc23)c(-c2ccc(NC(=O)N(C)C)cc2)n1 ?
A. 1

Q. # query: drug sensitivity score of entry Oc1ccc2c(c1)CC[C@H](c1ccccc1)[C@@H]2c1ccc(OCCN2CCCC2)cc1
A. 0.7

Q. Consider the compound shown here: CCc1cncnc1N1CCN(Cc2nc3ccc(C(F)(F)F)cc3[nH]2)CC1 What is its recorded drug sensitivity score?
A. 0.6

Q. Report drug sensitivity score for CC1(C)CCC(CN2CCN(c3ccc(C(=O)NS(=O)(=O)c4ccc(NCC5CCOCC5)c([N+](=O)[O-])c4)c(Oc4cnc5[nH]ccc5c4)c3)CC2)=C(c2ccc(Cl)cc2)C1 please.
A. 0
